I'd appreciate it if you could supply Kb values for the items below.
test system: human prostanoid EP3 receptor (Homo sapiens, UniProt P43115)
Construct: expressed in transfected cells
Sequence (P43115 1-390): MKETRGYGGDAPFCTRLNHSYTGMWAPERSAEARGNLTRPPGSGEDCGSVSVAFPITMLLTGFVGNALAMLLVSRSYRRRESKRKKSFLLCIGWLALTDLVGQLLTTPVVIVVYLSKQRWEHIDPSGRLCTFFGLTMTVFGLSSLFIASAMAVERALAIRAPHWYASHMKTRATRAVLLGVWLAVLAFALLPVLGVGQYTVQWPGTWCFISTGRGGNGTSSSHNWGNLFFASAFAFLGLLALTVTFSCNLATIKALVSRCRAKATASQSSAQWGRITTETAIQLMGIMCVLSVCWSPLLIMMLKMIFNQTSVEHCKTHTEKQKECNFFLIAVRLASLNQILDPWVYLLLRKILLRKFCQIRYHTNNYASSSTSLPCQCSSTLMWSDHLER
assay details: FLIPR Ca2+ signaling PG antagonist assay, EP3 stable cell line
Type: cell-based
experimental setup: HEK-293 EBNA cells, human recombinant EP3 with chimeric Gqi; standard agonist PGE2

The cases that follow already have their Kb on record.
>  <smiles input>
CCC(CC)COc1ccc(Br)cc1Cn1c(C)cc2cc(C(=O)O)ccc21

>  <outcome measure>
Kb

>  <val>
≥ 10 µM

$$$$
>  <smiles input>
CC(C)COc1ccc(O)cc1Cn1ncc2cc(C(=O)O)ccc21

>  <outcome measure>
Kb

>  <val>
≥ 10 µM

$$$$

Sample CCC(CC)COc1ccc(OC(F)(F)F)cc1Cn1cc(C)c2cc(C(=O)O)ccc21 ; Kb observed: ≥ 10 µM

---

test system: human prostanoid IP receptor (Homo sapiens)
Construct: expressed in transfected cells
Sequence (P43119 whole entry): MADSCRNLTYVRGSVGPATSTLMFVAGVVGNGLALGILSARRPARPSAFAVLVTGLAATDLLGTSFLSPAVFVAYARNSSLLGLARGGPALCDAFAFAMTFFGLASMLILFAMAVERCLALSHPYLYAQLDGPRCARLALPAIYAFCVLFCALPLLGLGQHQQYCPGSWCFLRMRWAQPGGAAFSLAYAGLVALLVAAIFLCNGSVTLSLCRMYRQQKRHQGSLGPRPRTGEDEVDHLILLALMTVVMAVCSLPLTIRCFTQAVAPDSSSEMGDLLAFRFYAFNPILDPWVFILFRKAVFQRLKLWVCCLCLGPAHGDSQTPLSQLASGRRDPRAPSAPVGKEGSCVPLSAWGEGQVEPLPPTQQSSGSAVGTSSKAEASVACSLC
assay details: FLIPR Ca2+ signaling PG antagonist assay, IP stable cell line
Type: cell-based
experimental setup: HEK-293 EBNA cells, human recombinant IP, no exogenous G-protein; standard agonist Cicaprost
outcome measure: Kb (nM)
Give bare numbers, in nM.

The cases that follow already have their Kb on record.
>  <compound>
O=C(O)c1ccc2c(cnn2Cc2cc(Br)ccc2OCC2CCCC2)c1 [Example 14]

>  <test system>
human prostanoid IP receptor (Homo sapiens)

>  <outcome measure>
Kb

>  <endpoint unit>
nM

>  <val>
340

$$$$
>  <compound>
CCC(CC)COc1ccc(Br)cc1Cn1nc(C)c2cc(C(=O)O)cnc21 [Example 59]

>  <test system>
human prostanoid IP receptor (Homo sapiens)

>  <outcome measure>
Kb

>  <endpoint unit>
nM

>  <val>
540

$$$$
>  <compound>
CCC(CC)COc1ccc(Br)cc1Cn1cnc2cc(C(=O)O)ccc21 [Example 78]

>  <test system>
human prostanoid IP receptor (Homo sapiens)

>  <outcome measure>
Kb

>  <endpoint unit>
nM

>  <val>
3000

$$$$

Lab note: next compound to report on.
Value sought: Kb, system human prostanoid IP receptor (Homo sapiens), item Cc1nn(Cc2cc(Br)ccc2OCC(C)C)c2ccc(C(=O)O)cc12 [Example 21] . Result: 900

---

test system: human prostanoid EP3 receptor (Homo sapiens, UniProt P43115)
Construct: expressed in transfected cells
Sequence (P43115 1-390): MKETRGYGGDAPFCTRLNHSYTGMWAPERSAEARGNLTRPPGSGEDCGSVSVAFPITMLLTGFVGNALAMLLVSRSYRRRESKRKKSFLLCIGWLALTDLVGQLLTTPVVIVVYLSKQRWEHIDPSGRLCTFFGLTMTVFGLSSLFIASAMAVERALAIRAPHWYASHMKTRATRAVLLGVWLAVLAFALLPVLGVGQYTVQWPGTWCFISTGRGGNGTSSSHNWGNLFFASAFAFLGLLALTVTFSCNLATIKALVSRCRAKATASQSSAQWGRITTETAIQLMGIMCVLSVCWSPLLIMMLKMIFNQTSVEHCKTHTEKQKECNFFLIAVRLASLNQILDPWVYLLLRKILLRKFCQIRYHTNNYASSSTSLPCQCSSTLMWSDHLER
assay details: FLIPR Ca2+ signaling PG antagonist assay, EP3 stable cell line
Format: cell-based
experimental setup: HEK-293 EBNA cells, human recombinant EP3 with chimeric Gqi; standard agonist PGE2
outcome measure: Kb

The cases that follow already have their Kb on record.
>  <smiles input>
CC(C)COc1ccc(Br)cc1Cn1ccc2cc(C(=O)O)cnc21

>  <val>
≥ 10 µM

$$$$
>  <smiles input>
O=C(O)c1cccc2c1cnn2Cc1cc(Cl)ccc1OCc1ccc(Cl)cc1

>  <val>
≥ 12 µM

$$$$
>  <smiles input>
CC(C)COc1ccc(OC(F)(F)F)cc1Cn1ncc2cc(C(=O)O)ccc21

>  <val>
≥ 10 µM

$$$$

Lab note: next compound to report on.
Sample CCC(CC)COc1ccc(Br)cc1Cn1nc(C)c2cc(C(=O)O)ccc21 ; Kb observed: 2.6 µM

---

test system: human prostanoid DP1 receptor (Homo sapiens, UniProt Q13258)
Construct: expressed in transfected cells
Sequence (Q13258 whole entry): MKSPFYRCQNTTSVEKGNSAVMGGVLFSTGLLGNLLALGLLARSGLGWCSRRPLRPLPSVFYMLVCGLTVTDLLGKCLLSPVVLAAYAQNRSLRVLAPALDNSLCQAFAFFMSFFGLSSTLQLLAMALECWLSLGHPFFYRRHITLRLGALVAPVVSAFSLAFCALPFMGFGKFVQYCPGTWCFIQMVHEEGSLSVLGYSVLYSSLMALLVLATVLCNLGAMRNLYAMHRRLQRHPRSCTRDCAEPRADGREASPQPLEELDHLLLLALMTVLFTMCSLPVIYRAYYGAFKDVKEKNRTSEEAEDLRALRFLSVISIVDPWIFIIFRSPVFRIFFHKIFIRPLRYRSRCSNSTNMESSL
assay details: FLIPR Ca2+ signaling PG antagonist assay, DP1 stable cell line
Assay type: cell-based
experimental setup: HEK-293 EBNA cells, human recombinant DP1 with chimeric Gqs; standard agonist BW 245C; read-out: DP (Kb, PG antagonist activity)
outcome measure: Kb (µM)
Numbers only, in µM.

The cases that follow already have their Kb on record.
>  <compound>
CC(C)COc1ccc(Br)cc1Cn1ncc2ccc(C(=O)O)cc21 [Example 42]

>  <test system>
human prostanoid DP1 receptor (Homo sapiens, UniProt Q13258)

>  <Kb, µM>
0.16

$$$$
>  <compound>
CC(C)COc1ccc(Cl)cc1Cn1cc2cc(C(=O)O)ccc2n1 [Example 16]

>  <test system>
human prostanoid DP1 receptor (Homo sapiens, UniProt Q13258)

>  <Kb, µM>
1.5

$$$$

Lab note: next compound to report on.
Value sought: Kb, system human prostanoid DP1 receptor (Homo sapiens, UniProt Q13258), item CC(C)COc1ccc(Br)cc1Cn1ncc2c(C(=O)O)cccc21 [Example 7] . Result: 1.9

---

test system: human prostanoid EP1 receptor (Homo sapiens, UniProt P34995)
Construct: expressed in transfected cells
Sequence (P34995 whole entry): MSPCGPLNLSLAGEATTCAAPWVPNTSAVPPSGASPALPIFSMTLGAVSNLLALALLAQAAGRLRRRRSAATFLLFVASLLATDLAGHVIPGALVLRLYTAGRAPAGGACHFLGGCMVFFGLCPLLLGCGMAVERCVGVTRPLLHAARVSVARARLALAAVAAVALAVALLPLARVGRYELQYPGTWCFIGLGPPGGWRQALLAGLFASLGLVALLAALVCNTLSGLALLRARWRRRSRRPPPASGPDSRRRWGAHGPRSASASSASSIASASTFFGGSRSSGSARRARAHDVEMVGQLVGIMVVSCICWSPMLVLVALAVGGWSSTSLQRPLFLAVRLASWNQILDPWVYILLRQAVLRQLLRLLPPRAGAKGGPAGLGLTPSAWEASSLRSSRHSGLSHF
assay details: FLIPR Ca2+ signaling PG antagonist assay, EP1 stable cell line
Type: cell-based
experimental setup: HEK-293 EBNA cells, human recombinant EP1, no exogenous G-protein; standard agonist PGE2
outcome measure: Kb (nM)
One number for each entry, in nM.

The cases that follow already have their Kb on record.
>  <compound>
CC(C)COc1ccc(OC(F)F)cc1Cn1ncc2cc(C(=O)O)ccc21 [Example 56]

>  <val>
24

$$$$
>  <compound>
Cc1nn(Cc2cc(Cl)ccc2OCC(C)C)c2ccc(C(=O)O)cc12 [Example 24]

>  <val>
20

$$$$
>  <compound>
O=C(O)c1ccc2c(cnn2Cc2cc(Br)ccc2OCC2CCCC2)c1 [Example 14]

>  <val>
20

$$$$
>  <compound>
CC(C)COc1ccc(Br)cc1Cn1ncc2cc(C(=O)O)ccc21 [Example 4]

>  <val>
6

$$$$
>  <compound>
O=C(O)c1cccc2nn(Cc3cc(Cl)ccc3OCC3CC3)cc12 [Example 35]

>  <val>
4200

$$$$

Required: Kb, one value per compound below.
1. CCC(CC)COc1ccc(OC(F)(F)F)cc1Cn1cc(C)c2cc(C(=O)O)ccc21 [Example 77]
2. CC(C)COc1ccc(Cl)cc1Cn1cc2c(C(=O)O)cccc2n1 [Example 37]
3. CC(C)(C)COc1ccc(Br)cc1Cn1ncc2cc(C(=O)O)ccc21 [Example 52]

## Output
[900, 480, 24]

Required: Kb, one value per compound below.
1. CC(C)COc1ccc(O)cc1Cn1ncc2cc(C(=O)O)ccc21 [Example 54]
2. CC1(COc2ccc(Br)cc2Cn2ncc3cc(C(=O)O)ccc32)CC1 [Example 19]
3. CC(C)COc1ccc(Br)cc1Cn1cc2cc(C(=O)O)ccc2n1 [Example 17]
4. CC(C)COc1ccc(S(C)(=O)=O)cc1Cn1ncc2cc(C(=O)O)ccc21 [Example 48]
5. O=C(O)c1ccc2c(cnn2Cc2cc(C(F)(F)F)ccc2OCC2CCCC2)c1 [Example 33]

## Output
1: 1300; 2: 12; 3: 40; 4: 260; 5: 70

Required: Kb, one value per compound below.
1. Cc1nn(Cc2cc(C(F)(F)F)ccc2OCC(C)C)c2ccc(C(=O)O)cc12 [Example 25]
2. CC(C)COc1ccc(Cl)cc1Cn1cc2cc(C(=O)O)ccc2n1 [Example 16]
3. CC(C)COc1ccc(Br)cc1Cn1ccc2cc(C(=O)O)ccc21 [Example 67]

## Output
[27, 90, 60]

---

test system: human prostanoid FP receptor (Homo sapiens, UniProt P43088)
Construct: expressed in transfected cells
Sequence (P43088 whole entry): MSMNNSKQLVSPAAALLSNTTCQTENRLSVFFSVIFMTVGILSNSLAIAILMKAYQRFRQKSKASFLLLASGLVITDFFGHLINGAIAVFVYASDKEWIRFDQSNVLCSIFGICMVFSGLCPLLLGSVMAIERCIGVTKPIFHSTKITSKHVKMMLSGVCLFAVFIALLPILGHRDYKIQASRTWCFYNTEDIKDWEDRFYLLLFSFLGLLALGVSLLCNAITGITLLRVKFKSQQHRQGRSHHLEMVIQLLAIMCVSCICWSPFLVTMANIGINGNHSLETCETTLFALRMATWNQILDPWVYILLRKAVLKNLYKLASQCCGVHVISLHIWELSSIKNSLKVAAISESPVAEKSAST
assay details: FLIPR Ca2+ signaling PG antagonist assay, FP stable cell line
Assay type: cell-based
experimental setup: HEK-293 EBNA cells, human recombinant FP, no exogenous G-protein; standard agonist 17-phenyl-PGF2α
outcome measure: Kb

The cases that follow already have their Kb on record.
>  <molecule>
CCC(CC)COc1ccc(Cl)cc1Cn1cc2c(C(=O)O)cccc2n1

>  <Kb>
≥ 10000 nM

$$$$
>  <molecule>
CC(C)COc1ccc(Br)cc1Cn1cc2ccc(C(=O)O)cc2n1

>  <Kb>
2200 nM

$$$$
>  <molecule>
CCC(CC)COc1ccc(Cl)cc1Cn1ncc2cc(C(N)=O)ncc21

>  <Kb>
≥ 10000 nM

$$$$

Required: Kb, one value per molecule below.
1. CC(C)COc1c(F)cc(Cl)cc1Cn1ncc2cc(C(=O)O)ccc21
2. O=C(O)c1ccc2cnn(Cc3cc(Br)ccc3OCC3CCCC3)c2c1
3. CCC(CC)COc1ccc(Cl)cc1Cn1ncc2ccc(C(=O)O)cc21 [Example 6]
4. O=C(O)c1ccc2c(cnn2Cc2cc(Br)ccc2OCc2ccccc2)c1
5. CC(C)(O)COc1ccc(Br)cc1Cn1ncc2cc(C(=O)O)ccc21
6. CCC(CC)COc1ccc(Cl)cc1Cn1ncc2ccc(C(=O)O)cc21 [Example 46]

## Output
1: 4700 nM; 2: 1400 nM; 3: 2400 nM; 4: 120 nM; 5: 230 nM; 6: ≥ 10000 nM

Required: Kb, one value per molecule below.
1. CCC(CC)COc1ccc(OC(F)(F)F)cc1Cn1cc(C)c2cc(C(=O)O)ccc21
2. CC(C)COc1ccc(Br)cc1Cn1ccc2cc(C(=O)O)cnc21
3. CCC(CC)COc1ccc(Br)cc1Cn1ccc2ccc(C(=O)O)cc21
4. CC(C)COc1ccc(O)cc1Cn1ncc2cc(C(=O)O)ccc21
5. Cc1nn(Cc2cc(C(F)(F)F)ccc2OCC(C)C)c2ccc(C(=O)O)cc12
6. CCC(CC)COc1ccc(Br)cc1Cn1cnc2cc(C(=O)O)ccc21
7. CC(C)COc1ccc(OC(F)(F)F)cc1Cn1ncc2cc(C(=O)O)ccc21

## Output
9600 nM
25 nM
≥ 10000 nM
1100 nM
180 nM
800 nM
13 nM
